Biological target: Active Human ERK2 (hERK2) (Homo sapiens (Human))
Sequence (P28482 whole entry): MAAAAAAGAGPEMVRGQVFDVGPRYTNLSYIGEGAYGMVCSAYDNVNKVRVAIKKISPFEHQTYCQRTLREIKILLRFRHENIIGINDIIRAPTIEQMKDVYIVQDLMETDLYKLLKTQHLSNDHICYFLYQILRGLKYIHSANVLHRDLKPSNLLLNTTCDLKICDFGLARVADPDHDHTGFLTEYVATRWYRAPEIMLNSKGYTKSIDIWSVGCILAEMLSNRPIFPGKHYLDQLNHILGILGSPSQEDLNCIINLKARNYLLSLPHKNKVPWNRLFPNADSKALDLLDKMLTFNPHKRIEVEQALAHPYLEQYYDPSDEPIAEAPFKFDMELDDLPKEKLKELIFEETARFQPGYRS
Experiment: Active Human ERK2 (hERK2) Activity Assay (IMAP-FP)
Format: biochemical
Details: phosphorylated active hERK2, 30 μM ATP; average; read-out: ERK 2 Human average IC50
ENDPOINT: pIC50
By convention, pIC50 is the negative base-10 log of a molar concentration.

Find the recorded pIC50 belonging to Cc1cc(-c2n[nH]c3cc(NC(=O)NCc4ncccc4F)ncc23)ccn1 [Example 447] and report it.
8.58

Find the recorded pIC50 belonging to Cc1cc(-c2n[nH]c3cc(NC(=O)N[C@@H]4CCCOc5ccccc54)ncc23)ccn1 [Example 285] and report it.
9.42

Find the recorded pIC50 belonging to Cc1cc(-c2n[nH]c3cc(NC(=O)NC4CCCOc5ccccc54)ncc23)no1 (centres unmarked) [Example 690] and report it.
6.62

Find the recorded pIC50 belonging to C[C@@H](NC(=O)Nc1cc2[nH]nc(-c3cccc(C#N)c3)c2cn1)c1ccccc1 [Example 672] and report it.
8.81

Find the recorded pIC50 belonging to Cc1cc(-c2n[nH]c3cc(NC(=O)NCc4ccc5ccccc5c4)ncc23)ccn1 [Example 45] and report it.
8.56

Find the recorded pIC50 belonging to Cc1cc(-c2n[nH]c3cc(NC(=O)NCc4cscn4)ncc23)ccn1 [Example 432] and report it.
9.13

Find the recorded pIC50 belonging to Cc1cc(-c2n[nH]c3cc(NC(=O)NCc4nc5ccccc5[nH]4)ncc23)ccn1 [Example 408] and report it.
8.70

Find the recorded pIC50 belonging to Cc1cc(-c2n[nH]c3c(Br)c(NC(=O)N[C@H](C)c4ccccc4)ncc23)ccn1 [Example 79] and report it.
7.46

Find the recorded pIC50 belonging to C[C@@H](NC(=O)Nc1cc2[nH]nc(-c3cnn(C)c3)c2cn1)c1ccc(F)c(Cl)c1 [Example 72] and report it.
9.15

Find the recorded pIC50 belonging to Cc1cc(-c2n[nH]c3cc(NC(=O)N[C@H](C)C4CCCCC4)ncc23)ccn1 [Example 575] and report it.
8.92

Find the recorded pIC50 belonging to Cc1cc(-c2n[nH]c3cc(NC(=O)NC4CCc5ccncc5C4)ncc23)ccn1 (centres unmarked) [Example 400] and report it.
8.27

Find the recorded pIC50 belonging to Cc1cc(-c2n[nH]c3cc(NC(=O)N[C@H](c4ccccc4)[C@H]4CCCO4)ncc23)ccn1 [Example 551] and report it.
7.38

Find the recorded pIC50 belonging to COCCNC(=O)Nc1cc2[nH]nc(-c3ccc(OC(C)C)nc3)c2cn1 [Example 630] and report it.
8.67

Find the recorded pIC50 belonging to C[C@@H](NC(=O)Nc1cc2[nH]nc(-c3ccc(C#N)nc3)c2cn1)c1ccc(F)cc1 [Example 254] and report it.
8.34

Find the recorded pIC50 belonging to Cc1cc(-c2n[nH]c3cc(NC(=O)NCc4cnccc4C)ncc23)ccn1 [Example 491] and report it.
8.85

Find the recorded pIC50 belonging to C[C@@H](NC(=O)Nc1cc2[nH]nc(C(=O)NCC3CCOC3)c2cn1)c1ccccc1 (some centres unmarked) [Example 121] and report it.
8.42

Find the recorded pIC50 belonging to Cc1cc(-c2n[nH]c3cc(NC(=O)NC4(c5ccc(Cl)cc5)CC4)ncc23)ccn1 [Example 85] and report it.
7.53
